Test system: Zymoseptoria tritici
Experiment: Test E: wheat leaf blotch, preventive spray on wheat seedlings
Conditions: 10 ppm; wheat leaf blotch; 100 = 100% disease control, 0 = no control
VALUE TYPE: Test E rating (% disease control) (%)
A number alone suffices; assume %.

Ask | Test E rating (% disease control) lookup needed for CCC(C)(C)C(O)(Cn1cncn1)C1=NOC(Cc2ccc(Cl)cc2)C1 (single isomer, unassigned) [Compound 18] , thanks.
Reply | 6

Ask | // next record OC(Cn1cncn1)(C1=NOC(COc2ccc(C(F)(F)F)cc2)C1)c1ccc(Cl)cc1 (single isomer, unassigned) [Compound 63]
Reply | 97

Ask | // next record OC(Cn1cncn1)(C1=NOC(Cc2ccc(-c3ccccc3)cc2)C1)c1ccc(Cl)cc1 (single isomer, unassigned) [Compound 204]
Reply | 0

Ask | // next record CC(C)(C)C(O)(Cn1cncn1)C1=NOC(CCc2ccc(C(F)(F)F)cc2)C1 (single isomer, unassigned) [Compound 13]
Reply | 98

Ask | // next record OC(Cn1cncn1)(C1=NOC(c2ccc(Cl)cc2)C1)c1ccc(C(F)(F)F)cc1 (single isomer, unassigned) [Compound 106]
Reply | 0

Ask | // next record OC(Cn1cncn1)(C1=NOC(Cc2ccc(F)cc2)C1)c1ccc(Cl)cc1 (single isomer, unassigned) [Compound 198]
Reply | 0

Ask | // next record CC(C)(C)C(O)(Cn1cncn1)C1=NOC(Cc2ccc(Cl)c(Cl)c2)C1 (single isomer, unassigned) [Compound 23]
Reply | 89

Ask | // next record CC(C)(C)C(O)(Cn1cncn1)C1=NOC(CSc2ccc(Cl)cc2)C1 (single isomer, unassigned) [Compound 26]
Reply | 0

Ask | // next record CCC(C)(C)C(O)(Cn1cncn1)C1=NOC(Cc2ccc(Cl)cc2)C1 (single isomer, unassigned) [Compound 17]
Reply | 7

Ask | // next record CC#CC(O)(Cn1cncn1)C1=NOC(c2ccc(Cl)cc2)C1 (centres unmarked) [Compound 104]
Reply | 0

Ask | // next record OC(Cn1cncn1)(C1=NOC(COc2ccc3c(c2)OCO3)C1)c1ccc(Cl)cc1 (single isomer, unassigned) [Compound 43]
Reply | 0

Ask | // next record OC(Cn1cncn1)(C1=NOC(c2ccc(Cl)cc2)C1)c1ccc(F)cc1 (single isomer, unassigned) [Compound 160]
Reply | 11

Ask | // next record C[S+]([O-])c1ccc(C2CC(C(O)(Cn3cncn3)c3ccc(Cl)cc3)=NO2)cc1 (single isomer, unassigned) [Compound 112]
Reply | 80

Ask | // next record C=CCC(O)(Cn1cncn1)C1=NOC(c2ccc(Cl)cc2)C1 (single isomer, unassigned) [Compound 84]
Reply | 0
